# Test system: Normal human fibroblasts
# PROCEDURE DETAILS: Contraction of collagen lattices by human fibroblasts
# Assay type: cell-based
# EXPERIMENTAL CONTEXT: 10 μg/ml peptide, 1×10^5 fibroblasts/well, Day 1 of culture
Ends that are not written are not given here.
Reported values of Diameter of Lattice, Day 1 for individual entries
// return numeric value only (unit: cm, not printed)

[[record]]
substance = "DRVYIHPI [Ile8 AII]"
recorded_measurement = 3.4

[[record]]
substance = "Asp-Arg-Val-Tyr-Ile-His-Pro-Phe (DRVYIHPF) [AII, known pressor agent, commercially available, reference compound]"
recorded_measurement = 3.3

[[record]]
substance = "Asp-Arg-Val-Tyr-Ile-His-Pro (DRVYIHP) [AII(1-7)]"
recorded_measurement = 3.4

[[record]]
substance = "GRVYIHPF [Gly1 AII]"
recorded_measurement = 3.4


Look at this substance and give its reported Diameter of Lattice, Day 1. RVYAHPF [Ala4-AIII]
3.4
